# assay: qHTS Assay for Spectroscopic Profiling in A350 Spectral Region
# test.context: Compound autofluorescence, 340/450 nm, Alexa 350 dye-equivalents
Screen size: about 59,000 compounds; about 6,500 (11%) were called active. Another 15% or so got no clear call; they are omitted. Cut-off read from the data, not from the text of the source: active = max dye-equivalent concentration above about 10 nM; inconclusive = mostly about 1.1 nM to 9.6 nM; inactive = weaker than that. For the sample, actives were picked, then their nearest neighbours and some compounds at random.
Outcomes: T for active, F for inactive

molecule: COc1ccc(C(=O)n2nc(-c3ccc(C)cc3)nc2N)cc1OC
discrete.label: T
//
molecule: COc1ccccc1C(=O)n1nc(-c2ccccc2)nc1N
discrete.label: F
//
molecule: CS(=O)(=O)Nc1cccc(-c2cncnc2Nc2ccccc2)c1
discrete.label: F
//
molecule: CN(Cc1ccccc1)c1nc2c(c(=O)[nH]c(=O)n2C)n1CCSc1nc2ccccc2[nH]1
discrete.label: F
//
molecule: COc1ccc(C(=O)n2nc(-c3ccc(Cl)cc3)nc2N)cc1OC
discrete.label: F
//
molecule: NC(=NC(=O)c1ccccc1)C1=C(O)CCC1=O
discrete.label: F
//
molecule: Cc1csc(NC(=O)NC2(C(F)(F)F)Oc3ccccc3O2)n1
discrete.label: T
//
molecule: Cc1cc2ccccc2n2c(SCC(=O)N3CCN(C(=O)c4ccco4)CC3)nnc12
discrete.label: F
//
molecule: CCn1c(Cc2ccccc2)nnc1SCc1nc2ccccc2c(=O)[nH]1
discrete.label: F
//
molecule: Cn1cccc1C(=O)Nc1nccs1
discrete.label: F
//
molecule: COc1ccc2[nH]cc(CCNc3cc(-c4ccccc4CN(C)C)ncn3)c2c1
discrete.label: F
//
molecule: Clc1ccc(C=Nc2ccc3c(c2)Cc2ccccc2-3)c(Cl)c1
discrete.label: F
//
molecule: O=C(Nc1cc(N2CCOCC2)ncn1)NC1(C(F)(F)F)Oc2ccc(Cl)cc2O1 (stereo not drawn)
discrete.label: F
//
molecule: CCn1cc(C(=O)NCc2ccc(OC)cc2OC)c(=O)c2ccc(C)nc21
discrete.label: F
//
molecule: Cn1cccc1C(=O)NC(=O)COC(=O)Cc1coc2ccc3ccccc3c12
discrete.label: T
//
molecule: CCOC(=O)CNC(=O)CSc1nnc(-c2cccc(OC)c2)n1CC
discrete.label: F
//
molecule: CC(C)(C)c1ccc(C(=O)CSc2ncn[nH]2)cc1
discrete.label: F
//
molecule: O/N=C(\c1ccc2c(c1)OCCO2)C1CCCCC1
discrete.label: F
//
molecule: COc1ccc(OCC(=O)N2CCN(C(=O)COc3ccccc3)CC2)cc1
discrete.label: F
//
molecule: O=C(c1csnn1)N1CCC2(CCN(Cc3nccs3)CC2)CC1
discrete.label: F
//
molecule: O=C(CN(Cc1ccccc1)C(=O)c1ccc2c(c1)OCCO2)NCc1ccc2c(c1)OCO2
discrete.label: F
//
molecule: CC(C)NC(=O)N1CCCC2(CCN(C(=O)c3cccn3C)CC2)C1
discrete.label: F
//
molecule: COC(=O)C1=C(N)Oc2cc(C)oc(=O)c2C1c1cccnc1 (stereo not drawn)
discrete.label: F

====

# assay: qHTS Assay for Spectroscopic Profiling in A350 Spectral Region
# test.context: Compound autofluorescence, 340/450 nm, Alexa 350 dye-equivalents
In all, about 59,000 compounds went through this assay and about 6,500 (11%) were called active. Another 15% or so got no clear call; they are omitted. Rule as the data show it: active = max dye-equivalent concentration above about 10 nM; inconclusive = mostly about 1.1 nM to 9.6 nM; inactive = weaker than that. The entries come from a sample that favours actives as a whole.
Outcomes: active, inactive

molecule: Fc1ccccc1OCCCCn1cncn1
discrete.label: inactive
//
molecule: O=C(O)c1ccc(-n2cccc2)cc1O
discrete.label: inactive
//
molecule: O=c1c2cc3c(=O)n(CC4CCCO4)c(=O)c3cc2c(=O)n1CC1CCCO1 (centres undefined)
discrete.label: inactive
//
molecule: COc1ccc(-n2c(SCC(=O)Nc3ccc4c(c3)OCO4)nnc2C(C)N2CCCCC2)cc1 (centres undefined)
discrete.label: inactive
//
molecule: CCOC(=O)CNC(=O)CSc1nnc(COc2ccc(Cl)cc2)n1CC
discrete.label: inactive
//
molecule: CCOc1ccccc1C1C(C(=O)OC)=CN(C)C=C1C(=O)OC
discrete.label: active
//
molecule: CCOc1ccccc1C(=O)NCCCn1ccnc1
discrete.label: inactive
//
molecule: CC(Oc1ccc(Cl)cc1)C(=O)Nc1ncccn1 (centres undefined)
discrete.label: inactive
//
molecule: O=C(NC1CCCCC1)c1ccc2c(=O)n(CC3CCCO3)c(=O)[nH]c2c1 (centres undefined)
discrete.label: active
//
molecule: Cc1ccc(C(=O)Nc2ccccc2C(=O)NC2CCCCC2)cc1S(=O)(=O)N1CCOCC1
discrete.label: inactive
//
molecule: CCN(c1ccccc1)S(=O)(=O)c1cccc(C(=O)O)c1
discrete.label: inactive
//
molecule: CC1CCc2c(sc(NC(=O)c3ccc(Cn4cc(Br)cn4)o3)c2C(N)=O)C1 (centres undefined)
discrete.label: active
//
molecule: O=C(CSc1nc2ncccc2[nH]1)Nc1ccc2c(c1)OCCO2
discrete.label: inactive
//
molecule: COc1ccc2nc(NC(=O)c3ccc(Br)s3)sc2c1
discrete.label: active
//
molecule: Cc1nnc(N(Cc2ccco2)C(=O)c2ccno2)s1
discrete.label: inactive
//
molecule: O=C(c1cccc2ccccc12)N1CCN(c2ccccc2F)CC1
discrete.label: inactive
//
molecule: COc1ccc2oc(=O)c(C(=O)N3CCCc4ccccc43)cc2c1
discrete.label: inactive
//
molecule: Cc1cc(C)n2nc(C(=O)Oc3ccc4c(c3)OCO4)nc2n1
discrete.label: inactive
//
molecule: O=C(Cn1c(-c2ccc(Cl)cc2)noc1=O)N1CCN(c2ccccc2F)CC1
discrete.label: inactive
//
molecule: CCOc1ccc(-c2nnc3ccc(SC)nn23)cc1
discrete.label: active
//
molecule: Cc1nnc(C)n1/N=C/c1ccc(C(C)C)cc1
discrete.label: inactive
//
molecule: CCCn1c(SCC(=O)c2ccc3c(c2)OCCO3)nnc1C(C)C
discrete.label: inactive
//
molecule: Cc1nc2nc3c(cn2n1)C(=O)CC(c1ccccc1)C3 (centres undefined)
discrete.label: inactive
//
molecule: CC1(C)CCCC2=C1CC1C(=O)N(c3ccccc3)C(=O)C1C2 (centres undefined)
discrete.label: inactive

====

# assay: qHTS Assay for Spectroscopic Profiling in A350 Spectral Region
# test.context: Compound autofluorescence, 340/450 nm, Alexa 350 dye-equivalents
The whole screen tested about 59,000 compounds, of which about 6,500 (11%) were called active. Another 15% or so got no clear call; they are omitted. Rule as the data show it: active = max dye-equivalent concentration above about 10 nM; inconclusive = mostly about 1.1 nM to 9.6 nM; inactive = weaker than that. The full list was thinned out, with actives kept by preference.
Outcomes: active, inactive

molecule: COc1ccc2c(CC(=O)Nc3nnc(C4CC4)s3)coc2c1
discrete.label: active
//
molecule: CS(=O)(=O)N(CC(=O)N1CCN(Cc2ccc3c(c2)OCO3)CC1)c1ccc2c(c1)OCO2
discrete.label: inactive
//
molecule: CC(C)N1C(=O)C2C(C(=O)NC3CCCCC3)C3C=CC2(O3)C1C(=O)NC1CCCC1 (configuration not stated)
discrete.label: inactive
//
molecule: CCOC(=O)N1CCN(C(=O)CN(C2CCCCC2)S(C)(=O)=O)CC1
discrete.label: inactive
//
molecule: Cc1noc(C)c1C(=O)OCC(=O)/C=C1\N(C)c2ccccc2C1(C)C
discrete.label: active
//
molecule: Cc1ccc(-c2nc(COC(=O)c3c(C)noc3C)cs2)cc1
discrete.label: inactive
//
molecule: CCCSc1nc2c(c(=O)n(C)c(=O)n2C)n1Cc1ccc(C)cc1
discrete.label: inactive
//
molecule: CC1(C)CC(=O)C(C2=NC(C)(C)Cc3ccccc32)=C(O)C1
discrete.label: inactive
//
molecule: CC1CCc2c(sc3c2C2=NS(=O)(=O)CCN2C=N3)C1 (configuration not stated)
discrete.label: active
//
molecule: CC(C)CCNC(=O)CN(C(=O)Cn1nnc(-c2ccc(F)cc2)n1)C1CCCC1
discrete.label: inactive
//
molecule: CS(=O)(=O)N(CC(=O)NCc1ccco1)c1ccc2c(c1)OCO2
discrete.label: active
//
molecule: COC(=O)[C@@H](NC(=O)NCc1cccc(OC)c1)C(C)C
discrete.label: inactive
//
molecule: Cc1ccccc1-c1nc(N(C)Cc2ccco2)c2ccccc2n1
discrete.label: inactive
//
molecule: CN1CCN(c2nc3c(c(=O)[nH]c(=O)n3C)n2Cc2cccc3ccccc23)CC1
discrete.label: inactive
//
molecule: O=C(Cn1nnc(-c2ccc3c(c2)OCO3)n1)NCc1ccco1
discrete.label: inactive
//
molecule: Cc1ccc(C(C(=O)NC2CCCC2)N(Cc2ccco2)C(=O)CCC(=O)Nc2ccccn2)cc1 (configuration not stated)
discrete.label: inactive
//
molecule: Cc1ccc(NC2=NC(c3ccccc3)n3c(nc(C)cc3=O)N2)cc1 (configuration not stated)
discrete.label: inactive
//
molecule: Cc1ccnc(SCCn2c(Br)nc3c2c(=O)[nH]c(=O)n3C)n1
discrete.label: inactive
//
molecule: Cc1noc(C)c1C(=O)Nc1ccccn1
discrete.label: inactive
//
molecule: CC(C)NC(=O)N1CC[C@@]2(CCCN(C(=O)c3cccc(F)c3)C2)C1
discrete.label: inactive
//
molecule: COc1ccc(OCCCC(=O)Nc2nnc(C3CCCO3)s2)cc1 (configuration not stated)
discrete.label: inactive
//
molecule: CC(C)c1nc2oc3c(N4CCN(C)CC4)ncnc3c2c2c1CCC2
discrete.label: inactive

Cited source for all entries: PubChem BioAssay AID590
